All values here come from patent US20070027145A1.

Tested on: EGF-stimulated proliferation of human umbilical vein endothelial cells (HUVEC)
assay_notes: In vitro HUVEC proliferation assay (b), EGF-stimulated
Format: cell-based
assay_setup: EGF 3 ng/ml, read-out: IC50 in the HUVEC assay (b) with respect to EGF
observation_type: pIC50
Interpret pIC50 as the negative base-10 log of the concentration measured in mol/L.

Which pIC50 is listed for COc1cc2c(Nc3ccc(Br)cc3F)ncnc2cc1OCC1CCN(C(=O)CN(C)C)CC1 [Example 1] ?
7.00

---

target_entity: human ether-a-go-go-related-gene (hERG)-encoded potassium channel (Homo sapiens)
Sequence (Q12809 whole entry): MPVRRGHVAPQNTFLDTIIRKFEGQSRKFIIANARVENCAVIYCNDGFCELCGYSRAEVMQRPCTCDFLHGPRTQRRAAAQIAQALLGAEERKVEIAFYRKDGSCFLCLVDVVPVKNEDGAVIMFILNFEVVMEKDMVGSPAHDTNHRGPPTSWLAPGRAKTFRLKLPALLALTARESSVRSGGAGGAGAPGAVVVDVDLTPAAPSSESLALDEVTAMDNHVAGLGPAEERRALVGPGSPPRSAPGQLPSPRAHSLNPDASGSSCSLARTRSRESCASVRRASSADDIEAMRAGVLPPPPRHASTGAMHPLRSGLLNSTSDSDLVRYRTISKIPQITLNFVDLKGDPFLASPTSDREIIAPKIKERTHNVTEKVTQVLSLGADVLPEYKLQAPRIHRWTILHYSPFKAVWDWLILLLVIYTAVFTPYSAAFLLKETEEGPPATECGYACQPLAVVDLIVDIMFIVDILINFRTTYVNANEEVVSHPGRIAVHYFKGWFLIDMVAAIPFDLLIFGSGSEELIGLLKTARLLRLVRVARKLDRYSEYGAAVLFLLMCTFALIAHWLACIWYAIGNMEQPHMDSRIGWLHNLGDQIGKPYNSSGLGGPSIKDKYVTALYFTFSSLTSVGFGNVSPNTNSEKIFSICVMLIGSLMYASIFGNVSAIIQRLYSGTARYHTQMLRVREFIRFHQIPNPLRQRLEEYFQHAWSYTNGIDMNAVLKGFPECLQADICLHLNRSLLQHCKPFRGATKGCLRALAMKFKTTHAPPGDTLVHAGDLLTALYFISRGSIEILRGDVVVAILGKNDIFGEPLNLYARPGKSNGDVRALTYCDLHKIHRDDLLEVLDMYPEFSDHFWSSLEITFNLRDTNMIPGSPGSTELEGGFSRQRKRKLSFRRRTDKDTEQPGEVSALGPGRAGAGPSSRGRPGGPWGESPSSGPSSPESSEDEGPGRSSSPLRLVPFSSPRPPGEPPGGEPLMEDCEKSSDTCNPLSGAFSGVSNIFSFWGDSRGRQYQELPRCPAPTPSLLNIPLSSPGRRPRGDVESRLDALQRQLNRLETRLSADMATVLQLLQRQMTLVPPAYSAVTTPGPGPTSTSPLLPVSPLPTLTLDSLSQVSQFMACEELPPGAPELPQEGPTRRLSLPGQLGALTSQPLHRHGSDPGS
assay_notes: hERG-encoded potassium channel inhibition test (d)
assay_setup: HEK cells, whole cell patch clamp, tail current
observation_type: IC50 (nM)
I only need the number, in nM, no unit after it.

Short answer please: IC50, human ether-a-go-go-related-gene (hERG)-encoded potassium channel (Homo sapiens), entry COc1cc2c(Nc3ccc(Br)cc3F)ncnc2cc1OCC1CCN(C(=O)CN(C)C)CC1
1500
